meta.source: ChEMBL document CHEMBL1201862

Test system: SK-MEL-28
Test: NCI tumour cell line growth inhibition, 48 h
Active and inactive are the calls of the source. Rule as the data show it: active = GI50 up to about 1.1 µM and inactive = higher.
Classes to choose from: t (active), f (inactive)

Qu. Per the records of this test, what outcome belongs to CC1(C(=O)Nc2ccc3cc4ccccc4cc3c2)CC2(C)CC(C)(C1)C(O)NC2=O (centres undefined) ?
Ans. f

Qu. Per the records of this test, what outcome belongs to `c1ccc(C/C(=N\Nc2nc3ccccc3[nH]2)c2ccccn2)cc1` ?
Ans. t

Qu. Per the records of this test, what outcome belongs to `COC1=CC(=O)C[C@@H](C)[C@]12Oc1c(Cl)c(OC)cc(OC)c1C2=O` ?
Ans. f

Qu. Per the records of this test, what outcome belongs to `O=c1[nH]c2[nH]c(-c3ccc(Br)cc3)cc2c2ccccc12` ?
Ans. f
